Task for the reader: assign each of the following compounds its reported CC50 at 120 h.
test_details: Cytotoxicity against human MT4 cells assessed as reduction in cell viability after 5 days by MTT assay
Format: cell-based

compound	CC50 at 120 h
O=C1Nc2ccc(Cl)cc2[C@@](C#CC2CC2)(C(F)(F)F)O1 [EFAVIRENZ]	> 6.34 µM
Cc1cc(/C=C/C#N)cc(C)c1Oc1cc(NCCCN2CCOCC2)nc(Nc2ccc(C#N)cc2)c1	≥ 4.72 µM

// for each compound below, give its CC50 at 120 h
1. Cc1cc(/C=C/C#N)cc(C)c1Oc1cc(NCC2CCCO2)nc(Nc2ccc(C#N)cc2)n1 (stereo not given)
2. Cc1ccnc2c1NC(=O)c1cccnc1N2C1CC1 [NEVIRAPINE]
3. Cc1cc(/C=C/C#N)cc(C)c1Oc1cc(Cl)nc(Nc2ccc(C#N)cc2)c1

["> 268 µM", "> 15 µM", "> 312 µM"]

The reported numbers originate from ChEMBL document CHEMBL4219160.
